target: Glucocorticoid receptor (Homo sapiens); assay: GR-GFP Redistribution (AID 450); settings: U2OS GR-GFP nuclear translocation, laser cytometry, 2 h
The source made the active and inactive calls.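 The calls were made as follows: active = compounds whose dose series gives a full or clear partial fitted curve of increased nuclear translocation; inconclusive = weak partial curve or effect only at the top dose; inactive = no dose-dependent translocation response.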
Select the matching outcome among true (1) for active, false (0) for inactive

Here are 5 compounds together with their reported answers.
Structure Smiles String: CN(C)CCCN1c2ccccc2Sc2ccc3ccccc3c21
Class Name: false (0)
--
Structure Smiles String: CN(Cc1cccc2ccccc12)Cc1cccc2ccccc12
Class Name: false (0)
--
Structure Smiles String: Cc1ccc(N(Cc2ccccc2)Cc2ccccc2)cc1
Class Name: false (0)
--
Structure Smiles String: C[N+](C)(C)c1ncnc2c1ncn2[C@@H]1CCCCO1
Class Name: false (0)
--
Structure Smiles String: O=c1c(CCc2ccccc2)nc2cnc(Oc3ccccc3)nc2n1C[C@H]1CCCO1
Class Name: false (0)

stdin: Each compound tested received a call. Report the one for CN[C@@H](c1ccncc1)[C@@H](NC)c1ccncc1 .
stdout: false (0)

stdin: Please indicate how the test categorized N#CC(CC(=O)O)=C(c1ccccc1)c1ccccc1 .
stdout: false (0)

stdin: Any idea what this test logged for NC(=O)SCC(=O)Nc1ccc2ncccc2c1 ?
stdout: false (0)

stdin: Could you kindly confirm the outcome this assay logged for O=[N+]([O-])c1ccc([C@@H](Nc2ccccc2)c2ccc3cccnc3c2O)cc1 ?
stdout: false (0)

stdin: # fetch the recorded call for Cc1ccccc1N1CCN(S(=O)(=O)C[C@@]23CC[C@H](C[C@H]2NC(=O)[C@@H](N)CCS(C)(=O)=O)C3(C)C)CC1 here
stdout: false (0)

====

Biological target: Mitogen-activated protein kinase 10 (Mus musculus) (UniProt Q61831)
Test: JNK3 AlphaScreen Assay (AID 530);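 also: kinase came from lysate of stimulated human HepG2 cells; signal reports phosphorylation of biotinylated GST-cJun 1-79 at Ser73 with 10 µM ATP; % is scaled to controls: 0 for no effect and ±100 for the full control effect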
Settings: JNK3 lysate, c-Jun phosphorylation; series mostly up to 11.4 µM
From the text: NIH Chemical Genomics Center [NCGC] NIH Molecular Libraries Screening Centers Network [MLSCN] The c-jun N-terminal kinase (JNK) family are serine/threonine protein kinases that phosphorylate c-jun, a component of the transcription factor protein-1 (AP-1). […] A homogeneous AlphaScreen is developed to measure the activity of JNK3. […] The phosphorylation of a biotinylated c-jun substrate by JNK3 can be detected with an antibody raised against phosphorylated c-jun. […]
Records with an inconclusive call do not appear. Activity calls are given as the source filed them. Calls come from the whole dose curve; as a rule, active = well fitted curve in either direction with a large enough effect (not every such curve was filed as active); inconclusive = small, poorly fitted or top-dose-only effect, or another doubt; inactive = flat fitted curve, though single readings scatter.
Measured Metric: outcome

Consider the worked cases shown below.
Structure Smiles String: NC(N)=NCCCC(=O)O
Test Value: inactive
//
Structure Smiles String: CC(C)c1cc(CN(C)C)c(O)c(C(C)(C)C)c1
Test Value: inactive
//
Structure Smiles String: NS(=O)(=O)c1cc2c(cc1Cl)N[C@H](Cc1ccccc1)NS2(=O)=O
Test Value: inactive
//
Structure Smiles String: CN1CCN(CC(=O)N2c3ccccc3Sc3cc4ccccc4cc32)CC1
Test Value: inactive
//
Structure Smiles String: C/C(=N/NC(=O)c1ccncc1)c1ccccc1Cl
Test Value: inactive

stdin: outcome lookup needed for O=C(O)CSc1nnc2c3ccccc3c3ccccc3c2n1 , thanks.
stdout: inactive

stdin: Which value of outcome has been reported for CC[C@@H](Nc1ncnc2nc[nH]c12)C(=O)O in the records?
stdout: inactive

stdin: So what does the record say about outcome for NC(=O)C1=CN([C@@H]2O[C@@H](COP(=O)(O)OP(=O)(O)OC[C@@H]3O[C@H](n4cnc5c(N)ncnc54)[C@@H](OP(=O)(O)O)[C@@H]3O)[C@H](O)[C@@H]2O)C=CC1 ?
stdout: inactive

====

Experiment: NFAT Signaling Pathway (AID 444);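 also: carbachol stimulus at about its EC50 of 1 µM final; % is scaled to controls: 0 for no effect and ±100 for the full control effect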
Settings: Jurkat NFAT-bla M1, carbachol, beta-lactamase ratio, 5 h; at 7.69 µM (top of the series) unless noted
Method: NCGC Assay Overview: The nuclear factor of activated T cells (NFAT) family of transcription factors has been found primarily in most immune system cells and some other non-immune cells. NFAT plays the immunomodulatory role, primarily in T-cell activation and differentiation. […] NCGC Assay Protocol Summary: The cells were prepared in RPMI 1640 medium containing 0.1% dialyzed FBS and 25 mM HEPES at 1.6 x 10^6cell/ml. […] The %Activity was determined from the ratio of 460nm/530nm. […]
Records with an inconclusive call do not appear. Active and inactive are the calls of the source. Calls follow the shape of the dose curve; as a rule, active = well fitted curve in either direction with a large enough effect (not every such curve was filed as active); inconclusive = small, poorly fitted or top-dose-only effect, or another doubt; inactive = flat fitted curve, though single readings scatter.
Select the matching outcome among TRUE = active, FALSE = inactive

Molecule: CN1CCc2c(cc(O)c(O)c2Cl)[C@H](c2cccc(Cl)c2)C1
Class Name: FALSE

stdin: Test call for this molecule, please: N=C(N)S[C@H]1c2ccccc2-c2cc([N+](=O)[O-])ccc21
stdout: FALSE

====

experiment: qHTS assay for small molecule activators of the p53 signaling pathway (AID 651743); settings: HCT-116 p53RE-bla, beta-lactamase FRET ratio, 16 h; active compounds read high; also: % of control where 0% means no effect
Inconclusive results are not listed.
Each entry below lists one item and its recorded activation value.
Quick reminder: number only, in %, skip the unit.

These solved cases illustrate the format of a correct answer.
Compound: O=C(O)/C=C/c1ccc(/C=C/C(=O)O)cc1
Output Unit: %
activation: 1.28
--
Compound: CCNC(=S)NCC
Output Unit: %
activation: -0.196
--
Compound: CCCCC(CC)COCCCN (stereo not given)
Output Unit: %
activation: -2.34
--
Compound: CC(C)S
Output Unit: %
activation: -1.26
--
Compound: Cc1cc(=O)oc2cc(O)cc(O)c12
Output Unit: %
activation: 10.2
--
Compound: O=C(O)c1cc(N=Nc2ccc([N+](=O)[O-])cc2)ccc1O
Output Unit: %
activation: -5.24
--
Compound: c1ccc(CSCc2ccccc2)cc1
Output Unit: %
activation: -0.938
--
Compound: CCCCC(CC)COP(=O)(OCC(CC)CCCC)OCC(CC)CCCC (stereo not given)
Output Unit: %
activation: -6.02

stdin: Query (compound): N[C@@H](Cc1ccccc1)C(=O)O ; field requested: activation
stdout: -1.26

stdin: Which activation value belongs to NC(=O)Nc1nc2ccccc2[nH]1 ?
stdout: -0.426

stdin: Which activation value belongs to O=[N+]([O-])c1ccc(F)cc1F ?
stdout: -3.21

stdin: Requested field: activation. Item: Nc1ccc(N=Nc2ccccc2)c(N)c1
stdout: -4.52

stdin: Sample Nc1cc(C(=O)O)c(O)c(S(=O)(=O)O)c1 — what was its activation?
stdout: -4.77

stdin: // returns reported activation for input Cc1cc2nc(N)sc2cc1C
stdout: -2.08

stdin: Could you tell me which activation is on file for C[Si](C)(C)Cl ?
stdout: -2.87

====

experiment: AP1 Signaling Pathway (AID 357); details: ME-180 AP-1-bla reporter, EGF-induced, beta-lactamase ratio, 5 h; at 7.69 µM (top of the series) unless noted;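 also: ME-180 reporter cells stimulated with EGF at its EC50 level; % is scaled to controls: 0 for no effect and ±100 for the full control effect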
Records with an inconclusive call do not appear. Activity calls are given as the source filed them. The call rests on the fitted dose curve; in most records, active means well fitted curve in either direction with a large enough effect (not every such curve was filed as active); inconclusive means small, poorly fitted or top-dose-only effect, or another doubt; inactive means flat fitted curve, though single readings scatter.
Measured activity change, negative = inhibition, listed per entry.

Here is how some molecules turned out for activity change, negative = inhibition.
Molecule: N=c1ccn2c(n1)O[C@@H]1[C@@H](O)[C@H](CO)O[C@H]12
Test Value: -4.43% [at 38 µM] (inactive)
--
Molecule: Nc1nc(-c2cc(-c3cccc4ccccc34)nc(N)n2)cc(-c2cccc3ccccc23)n1
Test Value: -7.45% (inactive)
--
Molecule: O=C(O)c1ccncc1.O=C(O)c1ccncc1.[NH2-].[NH2-].[Pt]
Test Value: -4.3% (inactive)
--
Molecule: Cc1[nH]c(N)nc(=S)c1CCCNc1ccccc1
Test Value: -2.18% (inactive)
--
Molecule: COc1ccc(Br)c2c1C[C@H](C(=O)O)CC2
Test Value: 12.4% (inactive)

Now for another entry.
stdin: Which activity change, negative = inhibition value belongs to CN(C)S(=O)(=O)Nc1ccccn1 ?
stdout: 2.01% (inactive)

====

test: AP1 Signaling Pathway (AID 357); details: ME-180 (cervical carcinoma) AP-1-bla reporter, EGF-induced, beta-lactamase ratio, 5 h; at 7.69 µM (top of the series) unless noted;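 also: ME-180 reporter cells stimulated with EGF at its EC50 level; % is scaled to controls: 0 for no effect and ±100 for the full control effect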
Results filed as inconclusive are left out.
Catalogue of compounds with associated activity change, negative = inhibition
The response must be a number in % with no trailing unit.

Compound: NC[C@@H](O)CSCc1ccc(Cl)cc1
activity change, negative = inhibition (%): -2.84
--
Compound: CC(C)c1ccc(/C(C(=O)O)=C(\O)C(=O)O)cc1
activity change, negative = inhibition (%): -1.43
--
Compound: C[C@@]12CC[C@@H]3[C@H](CCC4=CC(=O)CC[C@]43C)[C@@H]1CC[C@@H]2C(=O)COS(=O)(=O)c1ccc(Br)cc1
activity change, negative = inhibition (%): -0.601
--
Compound: CC1CCC(O)([C@](C)(C(=O)O)c2ccccc2)CC1 (some centres undefined)
activity change, negative = inhibition (%): -5.12
--
Compound: O=C1[C@@H]2[C@@H](C(=O)N1c1ccc(OCc3ccccc3)cc1)[C@@H]1c3ccccc3[C@@H]2[n+]2ccccc21
activity change, negative = inhibition (%): -1.52
--
Compound: COc1ccc(/C=C(\C#N)C(N)=O)cc1OC
activity change, negative = inhibition (%): -5.77
--
Compound: c1ccc(-c2nnn(CCN3CCCCC3)n2)cc1
activity change, negative = inhibition (%): 10.5
--
Compound: NC(N)=NC(N)=Nc1ccccc1 (tested in a mixture with another compound)
activity change, negative = inhibition (%): -4.98

stdin: Fill in: activity change, negative = inhibition of c1ccc(CCc2cccnc2)nc1 is ___
stdout: 12.9

stdin: Which activity change, negative = inhibition value is on record for CCOC(=O)[C@@H](O)Cc1cnc2ccccc2n1 ?
stdout: 5.54

stdin: What value of activity change, negative = inhibition has been recorded for this entry: C[C@]12CC[C@H]3c4ccc(O)cc4CC[C@@H]3[C@H]1CC[C@@H]2OP(=O)(O)O
stdout: -3.92
